# experiment summary: Human intrinsic clearance
# Type: in vitro ADME
measurement type: CLint scaled (mL/min/kg)
Field: numeric (mL/min/kg). Do not append units.

I have this compound here, "Cc1c(N2CCc3nc(C4(F)CC4)sc3C2)nc2nn(C)c(=O)n2c1C" , and I need its recorded CLint scaled.
9

---

# measured on: P450 3A4 (Homo sapiens, UniProt P08684)
# Sequence (P08684 whole entry): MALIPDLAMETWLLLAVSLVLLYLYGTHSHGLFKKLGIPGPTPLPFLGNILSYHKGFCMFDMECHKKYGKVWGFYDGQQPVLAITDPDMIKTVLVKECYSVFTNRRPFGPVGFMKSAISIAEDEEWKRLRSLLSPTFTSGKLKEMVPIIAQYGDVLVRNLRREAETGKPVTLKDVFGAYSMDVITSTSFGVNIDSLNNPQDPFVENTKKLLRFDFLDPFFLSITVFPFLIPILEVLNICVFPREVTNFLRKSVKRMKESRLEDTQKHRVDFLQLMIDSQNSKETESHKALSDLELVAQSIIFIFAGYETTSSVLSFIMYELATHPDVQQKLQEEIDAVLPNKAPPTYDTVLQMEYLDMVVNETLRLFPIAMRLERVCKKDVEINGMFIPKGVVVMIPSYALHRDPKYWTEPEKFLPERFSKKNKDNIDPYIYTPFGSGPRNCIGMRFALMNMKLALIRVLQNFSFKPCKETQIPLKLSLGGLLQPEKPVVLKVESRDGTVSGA
measurement type: IC50

I'd like to know its IC50. The compound in question is Cc1c(N2CCc3nc(C4(F)CC4)sc3C2)nc2nn(C)c(=O)n2c1C [Compound 70]
> 30 µM

---

Entries annotated with measured Emax at 30 µM
# measured on: Human M4 (Homo sapiens)
# experiment summary: M4 cell-based functional assay (calcium mobilization)
# Set-up: expressed in transfected cells
# details: % ACh maximum at 30 μM
Write the number in % without appending the unit.

As a guide, the following entries are already answered.
{"columns": ["molecule smiles", "Emax at 30 µM / %"],
 "data": [
  ["COC1CN(C(=O)c2cc(=O)n3nc(N4CCc5nc(Br)sc5C4)c(C)cc3n2)C1", 93],
  ["Cc1coc2ncnc(N3CCc4nc(Br)sc4C3)c12", 96],
  ["Cc1cc2nccnc2nc1N1CCc2nc(Cl)sc2C1", 68],
  ["Clc1ccc2ncnc(N3CCc4nc(Br)sc4C3)c2c1", 96],
  ["Cn1ccc2c(N3CCc4nc(Br)sc4C3)ncnc21", 43],
  ["Cc1c(C#N)nnc(N2CCc3nc(Br)sc3C2)c1C", 85],
  ["Cc1c(C#N)nnc(N2CCc3nc(Nc4cccc(F)c4)sc3C2)c1C", 41],
  ["Cc1nc(Cl)c(C)c(N2CCc3nc(Nc4ccccc4F)sc3C2)n1", 51]
]}

I am curious: what Emax at 30 µM value has been reported for "Cc1cc(C#N)cnc1N1CCc2nc(Br)sc2C1" ?
92

So what's the measured Emax at 30 µM for this one? "Cc1cc2nccnc2nc1N1CCc2nc(C3(C)CC3)sc2C1"
76

---

# measured on: P450 2C9 (Homo sapiens)
# Sequence (P11712 whole entry): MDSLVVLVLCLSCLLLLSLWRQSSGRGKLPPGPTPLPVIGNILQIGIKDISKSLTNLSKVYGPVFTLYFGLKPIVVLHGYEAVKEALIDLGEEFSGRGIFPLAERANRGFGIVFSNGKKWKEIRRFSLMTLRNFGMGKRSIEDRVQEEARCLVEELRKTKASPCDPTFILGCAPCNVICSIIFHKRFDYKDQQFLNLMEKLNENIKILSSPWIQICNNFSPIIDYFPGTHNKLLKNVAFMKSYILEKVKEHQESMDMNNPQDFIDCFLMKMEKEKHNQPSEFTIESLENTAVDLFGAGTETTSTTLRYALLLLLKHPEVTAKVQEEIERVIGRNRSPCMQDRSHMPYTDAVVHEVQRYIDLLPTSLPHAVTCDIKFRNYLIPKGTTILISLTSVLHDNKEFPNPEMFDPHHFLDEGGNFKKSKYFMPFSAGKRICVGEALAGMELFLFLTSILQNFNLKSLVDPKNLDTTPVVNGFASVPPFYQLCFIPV
measurement type: IC50

// lookup IC50 for Cc1c(N2CCc3nc(C4(F)CC4)sc3C2)nc2nn(C)c(=O)n2c1C [Compound 70]
> 30 µM

---

# measured on: Human M4 (Homo sapiens)
# experiment summary: M4 cell-based functional assay (calcium mobilization)
# Set-up: expressed in transfected cells
# details: % ACh maximum at 30 μM
# Emax at 30 µM per record follows
Supply the numeric figure in %, leaving out any unit text.

{"columns": ["molecule", "measured on", "Emax at 30 µM, %"],
 "data": [
  ["Cc1cc2nccnc2nc1N1CCc2ncsc2C1 [Compound 53]", "Human M4 (Homo sapiens)", 82],
  ["Cc1cc2nccnc2nc1N1CCc2nc(C3CC3(C)C)sc2C1 (stereo not shown) [Compound 63]", "Human M4 (Homo sapiens)", 63],
  ["Cc1nc(N2CCc3nc(Br)sc3C2)c2cc(Cl)ccc2n1 [Compound 32]", "Human M4 (Homo sapiens)", 91],
  ["Cc1ccc2ncnc(N3CCc4nc(Br)sc4C3)c2c1 [Compound 30]", "Human M4 (Homo sapiens)", 91]
]}

Request the reported Emax at 30 µM associated with Brc1nc2c(s1)CN(c1ncnc3ccsc13)CC2 [Compound 26]
98

Form field: reported Emax at 30 µM of COc1nc2c(s1)CN(c1nnc(C#N)c(C)c1C)CC2 [Compound 8]
79

# get_value(readout='Emax at 30 µM', item= Cc1cc(C#N)cnc1N1CCc2nc(-c3cncs3)sc2C1 [Compound 3] )
45

Form field: reported Emax at 30 µM of Cc1nc2c(s1)CN(c1nc3nccnc3cc1C)CC2 [Compound 57]
90

What value of measured Emax at 30 µM is listed for Cc1nc(Cl)c(C)c(N2CCc3nc(C)sc3C2)n1 [Compound 9] ?
98

Form field: reported Emax at 30 µM of Cc1nc2c(s1)CN(c1ncc(C#N)cc1C)CC2 [Compound 15]
87

---

# experiment summary: In vivo pharmacokinetics in dog
# details: plasma, read-out: Dog CLp
measurement type: clearance (mL/min/kg)
The answer is to be given in mL/min/kg; state only the numeric part.

Could you tell me which clearance is on file for Cc1c(N2CCc3nc(C4(F)CC4)sc3C2)nc2nn(C)c(=O)n2c1C [Compound 70] ?
24.4

---

# measured on: Human M4 (Homo sapiens)
# Sequence (P08173 1-479): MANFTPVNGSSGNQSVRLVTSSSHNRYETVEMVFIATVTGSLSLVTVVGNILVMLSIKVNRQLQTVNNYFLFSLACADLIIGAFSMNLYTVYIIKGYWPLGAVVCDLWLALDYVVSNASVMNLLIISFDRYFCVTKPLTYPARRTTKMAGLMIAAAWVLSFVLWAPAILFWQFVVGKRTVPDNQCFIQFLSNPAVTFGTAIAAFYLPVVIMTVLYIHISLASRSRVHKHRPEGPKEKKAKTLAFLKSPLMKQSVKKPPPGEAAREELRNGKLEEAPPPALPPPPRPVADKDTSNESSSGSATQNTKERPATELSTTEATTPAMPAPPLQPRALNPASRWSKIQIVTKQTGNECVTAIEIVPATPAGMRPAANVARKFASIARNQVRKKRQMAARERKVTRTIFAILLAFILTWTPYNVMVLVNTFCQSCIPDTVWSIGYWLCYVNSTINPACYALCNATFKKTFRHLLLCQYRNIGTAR
# experiment summary: Cellular cAMP Gi HTRF assay (agonist and potentiator modes)
# Type: cell-based
# Set-up: expressed in transfected cells; host or cells: CHO cells stably expressing human M4
# details: potentiator mode, forskolin plus EC20 acetylcholine, n = 2; read-out: hM4_cAMP Activity PAM EC50
measurement type: EC50

Dear colleague, I am looking for the recorded EC50 of the following compound: "Cc1c(N2CCc3nc(C4(F)CC4)sc3C2)nc2nn(C)c(=O)n2c1C"
11 nM

---

Documented Emax at 30 µM across a set of compounds
# measured on: Human M4 (Homo sapiens)
# Sequence (P08173 1-479): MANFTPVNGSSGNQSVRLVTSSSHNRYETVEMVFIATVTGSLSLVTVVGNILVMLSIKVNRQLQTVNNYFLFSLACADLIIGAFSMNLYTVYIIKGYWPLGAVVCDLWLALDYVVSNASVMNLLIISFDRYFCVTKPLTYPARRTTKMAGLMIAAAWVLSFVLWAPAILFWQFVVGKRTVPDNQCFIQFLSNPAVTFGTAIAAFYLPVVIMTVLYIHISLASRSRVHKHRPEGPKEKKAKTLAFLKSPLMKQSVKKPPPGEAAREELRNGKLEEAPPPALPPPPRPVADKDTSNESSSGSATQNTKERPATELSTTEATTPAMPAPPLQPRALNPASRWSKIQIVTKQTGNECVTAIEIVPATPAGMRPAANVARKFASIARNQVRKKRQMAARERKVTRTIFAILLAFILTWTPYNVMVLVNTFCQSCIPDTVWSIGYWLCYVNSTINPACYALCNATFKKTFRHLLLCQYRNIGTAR
# experiment summary: M4 cell-based functional assay (calcium mobilization)
# Parameters: expressed in transfected cells
# details: % ACh maximum at 30 μM
Numbers only; they are read as %.

Below, each entry is followed by its recorded Emax at 30 µM result.
{"columns": ["molecule smiles", "units text", "Emax at 30 µM"],
 "data": [
  ["Cc1cc(C#N)cnc1N1CCc2nc(C(N)=O)sc2C1", "%", 98],
  ["Cc1c(N2CCc3nc(C4CC4)sc3C2)nc2nn(CC3CC3)c(=O)n2c1C", "%", 111]
]}

Give the reported Emax at 30 µM for "Cc1nc(N2CCc3nc(Br)sc3C2)c2cc(F)ccc2n1" (system: Human M4 (Homo sapiens)).
99

API: value(readout= Emax at 30 µM, system= Human M4 (Homo sapiens), query= "Cc1cc(C#N)cnc1N1CCc2nc(NCc3cccc(F)c3)sc2C1" )
44

# query: Emax at 30 µM | item "Cc1cc2nc(C(=O)N3CC(C)(F)C3)cc(=O)n2nc1N1CCc2nc(Br)sc2C1" | system: Human M4 (Homo sapiens)
85

# returns recorded Emax at 30 µM (system: Human M4 (Homo sapiens)) for "Cc1cc2nc(=O)cc(C)n2nc1N1CCc2nc(Br)sc2C1"
71

// map "Cc1nc(Cl)c(C)c(N2CCc3nc(Br)sc3C2)n1" to recorded Emax at 30 µM (system: Human M4 (Homo sapiens))
85

Give recorded Emax at 30 µM with Human M4 (Homo sapiens) for the following compound: "Cc1cc2nc(=O)ccn2nc1N1CCc2nc(Br)sc2C1"
66

What value of Emax at 30 µM on Human M4 (Homo sapiens) does "Cc1csc2ncnc(N3CCc4nc(Br)sc4C3)c12" have?
82

---

# experiment summary: In vivo pharmacokinetics in rat
# details: brain / plasma, unbound
measurement type: Kp uu
Just the number, please, no unit after it.

Entry Cc1c(N2CCc3nc(C4(F)CC4)sc3C2)nc2nn(C)c(=O)n2c1C [Compound 70] has what Kp uu?
0.3
